# Assay text: Cytotoxicity against human PBMC cells assessed as survival rate at 25 uM measured after 72 hrs by trypan blue staining based assay relative to control
# Assay type: toxicity, cell-based
# Condition label: read-out: Survival
viability at 72 h, 25 µM values, listed per item
Just the number in %, nothing appended.

Consider the worked cases shown below.
[[record]]
compound_structure_string = "NCCCCCCCCCCCCNc1ncc(-c2ccccc2)[nH]1"
result_value = 6

[[record]]
compound_structure_string = "NCCCCCCCCNc1ncc(-c2ccc(Cl)cc2)[nH]1"
result_value = 79.6

[[record]]
compound_structure_string = "NCCCCCCCCNc1ncc(-c2ccc(Br)cc2)[nH]1"
result_value = 79.8


--- query ---
Exercise: Read off the recorded viability at 72 h, 25 µM for NCCCCCCCCNc1ncc(-c2ccc(F)cc2)[nH]1
Solution: 56.4

---

# Assay text: Genotoxicity in human CAPAN-1 cells assessed as fold change at 100 uM measured after 3 hrs by Western blot analysis
# Format: toxicity, cell-based
# Condition label: capan-1, 3 h
Measure name: fold change (FC)
Number only, please.

Consider the worked cases shown below.
[[record]]
molecule = "COc1cc([C@@H]2c3cc4c(cc3[C@@H](O[C@@H]3O[C@@H]5CO[C@@H](C)O[C@H]5[C@H](O)[C@H]3O)[C@H]3COC(=O)[C@H]23)OCO4)cc(OC)c1O [ETOPOSIDE]"
result_value = 10

[[record]]
molecule = "NCCCCCCCCCCCCNc1ncc(-c2ccccc2)[nH]1"
result_value = 2.75


--- query ---
Exercise: Read off the recorded fold change (FC) for NCCCCCCNc1ncc(-c2ccc(Br)cc2)[nH]1
Solution: 2.3

---

# Test system: Z-138
# Assay text: Cytotoxicity against human Z138 cells assessed as inhibition of cell growth measured after 72 hrs by CellTiter 96 Aqueous One Solution Cell Proliferation Assay
# Type: functional
# Condition label: Homo sapiens, Z-138, 72 h
Measure name: CC50 (µM)
Just the number in µM, nothing appended.

[[record]]
compound_structure_string = "NCCCCCCCCNc1ncc(-c2ccc(Br)cc2)[nH]1"
subject_of_test = "Z-138"
measure_name = "CC50"
unit_tag = "µM"
result_value = 30

[[record]]
compound_structure_string = "NCCCCCCCCNc1ncc(-c2ccc(Cl)cc2)[nH]1"
subject_of_test = "Z-138"
measure_name = "CC50"
unit_tag = "µM"
result_value = 21.6


Exercise: Read off the recorded CC50 for NCCCCCCCCNc1ncc(-c2ccccc2)[nH]1
Solution: 49.7

Exercise: Read off the recorded CC50 for NCCCCCCNc1ncc(-c2ccc(Cl)cc2)[nH]1
Solution: 11

---

# System: Staphylococcus aureus
# Assay text: Antibacterial activity against methicillin-resistant Staphylococcus aureus at 25 degree C measured after 48 hrs by crystal violet staining based microplate reader analysis
# Assay type: functional, organism-based
Measure name: IC50 (µM)
Just the number in µM, nothing appended.

[[record]]
compound_structure_string = "NCCCCCCCCCCCCNc1ncc(-c2ccccc2)[nH]1"
result_value = 19.7


Exercise: Read off the recorded IC50 for NCCCCNc1ncc(-c2ccccc2)[nH]1
Solution: 578

Exercise: Read off the recorded IC50 for NCCCCCCCCNc1ncc(-c2ccc(F)cc2)[nH]1
Solution: 79.9

Exercise: Read off the recorded IC50 for NCCCCCCNc1ncc(-c2ccccc2)[nH]1
Solution: 206

Exercise: Read off the recorded IC50 for NCCCCCCNc1ncc(-c2ccc(Cl)cc2)[nH]1
Solution: 16.1

Exercise: Read off the recorded IC50 for NCCCCCCCCCCNc1ncc(-c2ccccc2)[nH]1
Solution: 23.8

Exercise: Read off the recorded IC50 for NCCCCNc1ncc(-c2ccc(F)cc2)[nH]1
Solution: 217
